# tgt: Enoyl reducase (ENR) from Bacillus anthracis (BaENR) (Bacillus anthracis, UniProt A0A6L8PBX8)
# Sequence (A0A6L8PBX8 1-256): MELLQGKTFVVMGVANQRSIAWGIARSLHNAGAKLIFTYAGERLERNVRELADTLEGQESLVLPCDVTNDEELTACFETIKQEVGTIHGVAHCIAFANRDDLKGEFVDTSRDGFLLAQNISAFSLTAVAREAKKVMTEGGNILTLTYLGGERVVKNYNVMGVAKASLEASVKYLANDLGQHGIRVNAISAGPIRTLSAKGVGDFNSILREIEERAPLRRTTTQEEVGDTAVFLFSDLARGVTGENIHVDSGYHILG
# experiment: biochemical
pIC50: −log10 of the molar value.
Measured pIC50 by item
recorded endpoint: pIC50

- CCCc1ccc(Oc2cccc(C(F)(F)F)c2)c(O)c1 [Compound 46]: 5.91
- CCCc1ccc(Oc2cccc(CCO)c2)c(O)c1 [Compound 13]: 5.22
- CCCc1ccc(Oc2cccc(-c3ccccc3)c2)c(O)c1 [Compound 36, 2-(Biphenyl-3-yloxy)-5-propylphenol]: 6.30

###

# tgt: Enoyl reducase (ENR) from Bacillus anthracis (BaENR) (Bacillus anthracis)
# experiment: biochemical
# measurement conditions: read-out: % inhibition at 1μM
Each record's inhibition at 1 µM is compared with low end: < 2%; middle: ≥ 2% and < 10%; high end: ≥ 10% to give its class.

• Oc1ccc(Oc2ccc(Cl)cc2O)cc1 [Compound 3, 5-Chloro-2-(4-hydroxyphenoxy)phenol] = middle
• OCc1ccc(Oc2ccccc2)c(O)c1 [Compound 28, 5-Hydroxymethyl-2-phenoxyphenol] = middle
• CCCc1ccc(Oc2cccc(C(=O)O)c2)c(O)c1 = middle
• CCCc1ccc(Oc2cccc(N(C)C)c2)c(O)c1 = high end
• CCCc1ccc(Oc2cccc(Oc3ccc(CCC)cc3O)c2)c(O)c1 = high end
• O=C(O)c1cc(Cl)ccc1Oc1ccccc1 = low end
• Oc1cc(Cl)ccc1Oc1ccc(Oc2ccc(Cl)cc2O)cc1 = high end
• CC(=O)Nc1ccccc1Oc1ccc(Cl)cc1O = low end
• NC(=O)c1cc(Cl)ccc1Oc1ccccc1 [Compound 17, 5-Chloro-2-phenoxybenzamide] = low end
• Oc1cc(CNCc2ccccc2)ccc1Oc1ccccc1 = middle
• Oc1cc(CN2CCCCC2)ccc1Oc1ccccc1 = low end
• CCCc1ccc(Oc2cccc(CCC(=O)O)c2)c(O)c1 = high end
• OCc1cc(Cl)ccc1Oc1ccccc1 = low end
• CC(=O)Nc1ccc(Oc2ccc(Cl)cc2O)cc1 = low end
• CCCC(C)NCc1ccc(Oc2ccccc2)c(O)c1 (centres unmarked) = low end
• CCCc1ccc(Oc2ccc(C(C)O)cc2)c(O)c1 (centres unmarked) = high end
• Clc1ccc(Oc2ccc(Cl)cc2Oc2cccnc2)c(Cl)c1 = low end
